# testSystem: T1, NPR-B (natriuretic peptide receptor B), murine, expressed endogenously on NIH3T3 cells (murine, UniProt Q6VVW5 17-1047)
# T1 sequence (looked up): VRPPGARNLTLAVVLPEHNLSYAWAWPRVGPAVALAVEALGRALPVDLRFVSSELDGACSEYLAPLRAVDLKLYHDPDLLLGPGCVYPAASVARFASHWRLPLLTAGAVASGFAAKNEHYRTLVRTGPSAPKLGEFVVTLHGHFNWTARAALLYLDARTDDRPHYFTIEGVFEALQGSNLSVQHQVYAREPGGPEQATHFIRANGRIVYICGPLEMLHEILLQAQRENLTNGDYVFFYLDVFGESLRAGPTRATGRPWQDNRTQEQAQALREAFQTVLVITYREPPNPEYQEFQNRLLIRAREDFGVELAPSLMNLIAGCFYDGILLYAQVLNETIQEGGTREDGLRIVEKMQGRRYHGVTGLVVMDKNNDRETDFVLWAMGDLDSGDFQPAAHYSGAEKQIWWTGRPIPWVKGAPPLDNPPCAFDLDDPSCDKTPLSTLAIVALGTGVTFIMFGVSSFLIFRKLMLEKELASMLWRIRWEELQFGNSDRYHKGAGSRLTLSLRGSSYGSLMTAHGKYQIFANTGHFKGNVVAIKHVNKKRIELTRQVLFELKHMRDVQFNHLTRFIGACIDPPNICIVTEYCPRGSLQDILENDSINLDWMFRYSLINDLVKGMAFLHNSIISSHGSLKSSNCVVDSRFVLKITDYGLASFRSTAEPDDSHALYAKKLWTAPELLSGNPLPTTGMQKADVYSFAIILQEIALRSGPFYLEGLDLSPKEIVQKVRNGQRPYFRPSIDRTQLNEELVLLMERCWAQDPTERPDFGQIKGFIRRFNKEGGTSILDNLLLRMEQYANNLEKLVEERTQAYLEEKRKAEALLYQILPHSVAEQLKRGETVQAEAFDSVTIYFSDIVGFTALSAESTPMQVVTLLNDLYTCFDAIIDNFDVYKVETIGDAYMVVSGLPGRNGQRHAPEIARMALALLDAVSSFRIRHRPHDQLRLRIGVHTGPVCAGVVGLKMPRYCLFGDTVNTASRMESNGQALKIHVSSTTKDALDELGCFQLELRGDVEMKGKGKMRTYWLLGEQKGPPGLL
# assay: cell-based or functional assay
Where no end group is shown, it is not given here. PEO24 = PEO24, 1.2 kDa, monodispersed
recordedEndpoint: cGMP response rel. to 1 uM CNP22; 10 nM peptide, NIH3T3 cells

• PEO24-GANRRGLSRGCFGLKLDRIGSMSGLGC (ends and bridges not checked) [PEO24-GANRR-CNP22(K4R)] = 28 rel. to 1 uM CNP22 (100)
• PEG1K-GANRRGLSRGCFGLKLDRIGSMSGLGC (ends and bridges not checked) [PEG1K-GANRR-CNP22(K4R)] = 15 rel. to 1 uM CNP22 (100)
• PEO24-ERGLSRGCFGLKLDRIGSMSGLGC (ends and bridges not checked) [PEO24-ER-CNP22, K4R] = 6 rel. to 1 uM CNP22 (100)

Data provenance: patent USRE48267E1
